# Test system: primary Clade B HIV-1 isolates
# method.description: Virus inhibition assay, primary HIV-1 isolates in PBMC, p24 endpoint
# Type: cell-based
# particulars: mean over the panel of primary isolates; read-out: IC50, Mean
# Description: A robust virus inhibition assay was used to evaluate the anti-viral activity of DSB against primary HIV-1 isolates propagated in PMBC. Briefly, serial dilutions of DSB were made in medium into 96-well tissue culture plates. 25-250 TCID50 of virus and 5×10^5 PHA-stimulated PBMCs were added to each well. On days 1, 3 and 5 post-infection, media was removed from each well and replaced with fresh media containing DSB at the appropriate concentration. […]
assay.endpoint: IC50 (nM)
Note: unit nM is implicit; provide only the numeric part.

Lookup: Fill in the blank: the reported IC50 of C=C(C)[C@@H]1CC[C@]2(C(=O)O)CC[C@]3(C)[C@H](CC[C@@H]4[C@@]5(C)CC[C@H](OC(=O)CC(C)(C)C(=O)O)C(C)(C)[C@@H]5CC[C@]43C)[C@@H]12 is ____.
Found: 6.1

The measured values listed here are drawn from patent US7537765B2.
